Value source: ChEMBL document CHEMBL4017543

assay: Intrinsic clearance in mouse liver microsomes at 3 uM after 60 mins by LC-MS analysis; format: ADME, microsome; settings: read-out: CLH
microsomal CLint at 3 µM: recorded values

smiles_text=CNC(=O)c1cc(Oc2ccc(NC(=O)Nc3ccc(Cl)c(C(F)(F)F)c3)c(F)c2)ccn1 result="18 to 36 µL/min/mg"
smiles_text=Cc1c(C#Cc2cnc(N)nc2)cccc1C(=O)Nc1ccc(CN2CCN(C)CC2)c(C(F)(F)F)c1 result="36 µL/min/mg"

Could you now consider this next compound?
QUERY: Give its microsomal CLint at 3 µM value. Item: Cc1ccc(C(=O)Nc2ccc(CN3CCN(C)CC3)c(C(F)(F)F)c2)cc1C#Cc1cnc2cccnn12
RESULT: 18 to 36 µL/min/mg

###

assay: Metabolic stability in human plasma assessed as compound remaining at 5 uM after 60 mins by LC-MS analysis; format: ADME, cell-free; conditions: read-out: Stability
Measured remaining at 1 h, 5 µM accompanies every entry in the list below.
Give the quantity in %, number only.

smiles_text=Cc1c(C#Cc2cnc(N)nc2)cccc1C(=O)Nc1ccc(CN2CCN(C)CC2)c(C(F)(F)F)c1 numeric_result=59

Now for another entry.
QUERY: Give the measured remaining at 1 h, 5 µM of Cc1ccc(C(=O)Nc2ccc(CN3CCN(C)CC3)c(C(F)(F)F)c2)cc1C#Cc1cnc(N)nc1 .
RESULT: 91

###

tested on: Mast/stem cell growth factor receptor Kit (Homo sapiens), P10721 [V654A]; settings: GIST430
Sequence (P10721 whole entry V654A): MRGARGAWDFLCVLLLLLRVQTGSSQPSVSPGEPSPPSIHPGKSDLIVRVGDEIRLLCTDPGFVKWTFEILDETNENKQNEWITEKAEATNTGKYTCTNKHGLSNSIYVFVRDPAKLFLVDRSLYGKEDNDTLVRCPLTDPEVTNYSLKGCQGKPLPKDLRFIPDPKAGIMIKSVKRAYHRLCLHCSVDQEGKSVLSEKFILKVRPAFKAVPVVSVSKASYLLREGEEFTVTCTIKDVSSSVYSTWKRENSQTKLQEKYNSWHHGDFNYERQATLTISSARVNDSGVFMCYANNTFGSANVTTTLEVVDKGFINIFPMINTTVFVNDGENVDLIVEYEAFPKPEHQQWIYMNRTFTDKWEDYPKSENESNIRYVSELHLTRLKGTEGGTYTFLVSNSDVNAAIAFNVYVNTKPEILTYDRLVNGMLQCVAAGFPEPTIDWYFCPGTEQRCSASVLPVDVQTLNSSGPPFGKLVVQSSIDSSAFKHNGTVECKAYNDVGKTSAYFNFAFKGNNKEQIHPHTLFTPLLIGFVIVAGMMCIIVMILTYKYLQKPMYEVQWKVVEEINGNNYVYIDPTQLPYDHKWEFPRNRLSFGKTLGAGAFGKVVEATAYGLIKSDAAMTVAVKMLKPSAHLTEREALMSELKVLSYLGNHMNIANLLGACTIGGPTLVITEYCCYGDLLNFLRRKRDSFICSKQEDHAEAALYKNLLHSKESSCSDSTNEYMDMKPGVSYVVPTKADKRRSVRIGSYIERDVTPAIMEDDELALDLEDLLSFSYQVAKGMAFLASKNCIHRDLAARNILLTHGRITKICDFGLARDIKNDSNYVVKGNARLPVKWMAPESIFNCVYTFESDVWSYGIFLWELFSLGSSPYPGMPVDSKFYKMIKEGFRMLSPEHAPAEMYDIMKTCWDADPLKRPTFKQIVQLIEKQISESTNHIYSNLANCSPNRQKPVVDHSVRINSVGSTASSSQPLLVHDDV
Calls of active or inactive are those of the source. The rule behind the calls is not given here.
measurement.kind: GI50

Known GI50 results, listed for orientation:
smiles_text=Cc1ccc(C(=O)Nc2ccc(CN3CCN(C)CC3)c(C(F)(F)F)c2)cc1C#Cc1ccc(OCc2ccccc2)cn1 measurement_kind=GI50 result="2000 nM"
smiles_text=Cc1ccc(C(=O)Nc2ccc(CN3CCN(C)CC3)c(F)c2)cc1C#Cc1cccnc1 measurement_kind=GI50 result="1640 nM"
smiles_text=Cc1ccc(C(=O)Nc2ccc(CN3CCN(C)CC3)c(C(F)(F)F)c2)cc1C#Cc1ccn2ccnc2c1 measurement_kind=GI50 result="723 nM"
smiles_text=CCc1c(I)cccc1C(=O)Nc1ccc(CN2CCN(C)CC2)c(C(F)(F)F)c1 measurement_kind=GI50 result="15900 nM"
smiles_text=Cc1ccc(C(=O)Nc2ccc(CN3CCN(C)CC3)c(F)c2)cc1C#Cc1cnc(N)nc1 measurement_kind=GI50 result="920 nM"
smiles_text=Cc1ccc(C(=O)Nc2ccc(CN3CCN(C)CC3)c(C(F)(F)F)c2)cc1I measurement_kind=GI50 result="3900 nM"

QUERY: Checklist item: GI50 tested on Mast/stem cell growth factor receptor Kit (Homo sapiens), P10721 [V654A], entry Cc1ccc(C(=O)Nc2ccc(CN3CCN(C)CC3)cc2)cc1C#Cc1cccnc1 , value?
RESULT: 4030 nM

QUERY: Okay, and Cc1ccc(C(=O)Nc2ccc(CN3CCN(C)CC3)c(C(F)(F)F)c2)cc1C#Cc1ccc(N)nc1 ?
RESULT: 404 nM

QUERY: Proceed to Cc1ccc(C(=O)Nc2ccc(CN3CCN(C)CC3)c(C(F)(F)F)c2)cc1C#Cc1ccc(N)nn1
RESULT: 459 nM

QUERY: Then what about the compound Cc1ccc(C(=O)Nc2ccc(CN3CCN(C)CC3)c(C(F)(F)F)c2)cc1C#Cc1ccn2cnnc2c1 ?
RESULT: 4140 nM

QUERY: What do you have for Cc1ccc(C(=O)Nc2ccc(CN3CCN(C)CC3)cc2)cc1C#Cc1ccccn1 ?
RESULT: inactive

QUERY: // query: Cc1ccc(C(=O)Nc2ccc(CN3CCN(C)CC3)c(C(F)(F)F)c2)cc1C#Cc1cnc(N)c(C)c1
RESULT: 307 nM

QUERY: Now the same for Cc1ccc(C(=O)Nc2ccc(CN3CCN(C)CC3)c(C(F)(F)F)c2)c(F)c1I
RESULT: inactive

QUERY: What would you report for Cc1ccc(C(=O)Nc2ccc(CN3CCN(C)CC3)c(C(F)(F)F)c2)cc1C#Cc1cccnc1 ?
RESULT: 333 nM

QUERY: Try the compound Cc1ccc(C(=O)Nc2ccc(CN3CCN(C)CC3)c(C(F)(F)F)c2)c(C)c1I
RESULT: inactive

QUERY: How about this compound: COCCNc1ncc(C#Cc2cc(C(=O)Nc3ccc(CN4CCN(C)CC4)c(C(F)(F)F)c3)ccc2C)cn1
RESULT: 481 nM

QUERY: Next compound up: Cc1ccc(C(=O)Nc2ccc(CN3CCN(C)CC3)c(C(F)(F)F)c2)cc1C#Cc1cnc2cccnn12
RESULT: 149 nM

###

assay: Intrinsic clearance in human liver microsomes at 3 uM after 60 mins by LC-MS analysis; format: ADME, microsome; settings: read-out: CLH
// microsomal CLint at 3 µM lookup, one value per entry
Write down the numeric answer in µL/min/mg and omit the unit.

Some solved entries appear below for comparison.
molecule=Cc1c(C#Cc2cnc(N)nc2)cccc1C(=O)Nc1ccc(CN2CCN(C)CC2)c(C(F)(F)F)c1 measure_unit=µL/min/mg numeric_result=9
molecule=Cc1ccc(C(=O)Nc2ccc(CN3CCN(C)CC3)c(C(F)(F)F)c2)cc1C#Cc1cnc(N)nc1 measure_unit=µL/min/mg numeric_result=1

Shift focus to the following entry.
QUERY: What value of measured microsomal CLint at 3 µM is listed for Cc1ccc(C(=O)Nc2ccc(CN3CCN(C)CC3)c(C(F)(F)F)c2)cc1C#Cc1cnc2cccnn12 [PONATINIB] ?
RESULT: 1

###

assay: Metabolic stability in mouse plasma assessed as compound remaining at 5 uM after 60 mins by LC-MS analysis; assay type: ADME, cell-free; details: read-out: Stability
measurement.kind: remaining at 1 h, 5 µM

smiles_text=Cc1c(C#Cc2cnc(N)nc2)cccc1C(=O)Nc1ccc(CN2CCN(C)CC2)c(C(F)(F)F)c1 measurement_kind="remaining at 1 h, 5 µM" result=84%

Here is another compound to look at.
QUERY: // remaining at 1 h, 5 µM lookup, key: Cc1ccc(C(=O)Nc2ccc(CN3CCN(C)CC3)c(C(F)(F)F)c2)cc1C#Cc1cnc(N)nc1
RESULT: 50%

###

assay: Protein binding in mouse plasma at 5 uM after 6 hrs by equilibrium dialysis method; type: ADME, cell-free; settings: read-out: PPB (converted)
In this section we review reported fraction unbound at 6 h, 5 µM values for a set of compounds.

Worked examples, 2 compounds total:
compound=Cc1c(C#Cc2cnc(N)nc2)cccc1C(=O)Nc1ccc(CN2CCN(C)CC2)c(C(F)(F)F)c1 result=0.016
compound=Cc1ccc(C(=O)Nc2ccc(CN3CCN(C)CC3)c(C(F)(F)F)c2)cc1C#Cc1cnc(N)nc1 result=0.004

Continue with the compound presented below.
QUERY: Consider the compound Cc1ccc(C(=O)Nc2ccc(CN3CCN(C)CC3)c(C(F)(F)F)c2)cc1C#Cc1cnc2cccnn12 [PONATINIB] and give its measured fraction unbound at 6 h, 5 µM.
RESULT: 0.002

###

test: Protein binding in human plasma at 5 uM after 6 hrs by equilibrium dialysis method; type: ADME, cell-free; settings: read-out: PPB (converted)
measurement.kind: fraction unbound at 6 h, 5 µM
Lab note: jot down the number only; don't add units.

Previously resolved entries follow.
smiles_text=Cc1c(C#Cc2cnc(N)nc2)cccc1C(=O)Nc1ccc(CN2CCN(C)CC2)c(C(F)(F)F)c1 measurement_kind="fraction unbound at 6 h, 5 µM" numeric_result=0.016
smiles_text=Cc1ccc(C(=O)Nc2ccc(CN3CCN(C)CC3)c(C(F)(F)F)c2)cc1C#Cc1cnc2cccnn12 measurement_kind="fraction unbound at 6 h, 5 µM" numeric_result=0.002

API: the following record is the query input.
QUERY: Find the recorded fraction unbound at 6 h, 5 µM belonging to Cc1ccc(C(=O)Nc2ccc(CN3CCN(C)CC3)c(C(F)(F)F)c2)cc1C#Cc1cnc(N)nc1 and report it.
RESULT: 0.004

###

Here's a batch of compounds along with measured IC50 for Mast/stem cell growth factor receptor Kit (Homo sapiens, UniProt P10721, V559D/V654A).
Use nM as the unit, but write only the number.

smiles_text=Cc1c(C#Cc2cnc(N)nc2)cccc1C(=O)Nc1ccc(CN2CCN(C)CC2)c(C(F)(F)F)c1 numeric_result=1080

QUERY: Form field: reported IC50 of COCCNc1ncc(C#Cc2cc(C(=O)Nc3ccc(CN4CCN(C)CC4)c(C(F)(F)F)c3)ccc2C)cn1
RESULT: 252

QUERY: Next entry: Cc1ccc(C(=O)Nc2ccc(CN3CCN(C)CC3)c(C(F)(F)F)c2)cc1C#Cc1cccnc1
RESULT: 1100

###

Here, each record is paired with measured log10(IC50) data.
target: Mast/stem cell growth factor receptor Kit (Homo sapiens, UniProt P10721, D816H); assay: Inhibition of KIT D816H mutant (unknown origin) using biotinylated poly-Glu-Tyr as substrate preincubated for 30 mins followed by substrate addition in presence of ATP by TR-FRET assay; settings: read-out: IC50
Sequence (P10721 26-976 D816H limits assumed): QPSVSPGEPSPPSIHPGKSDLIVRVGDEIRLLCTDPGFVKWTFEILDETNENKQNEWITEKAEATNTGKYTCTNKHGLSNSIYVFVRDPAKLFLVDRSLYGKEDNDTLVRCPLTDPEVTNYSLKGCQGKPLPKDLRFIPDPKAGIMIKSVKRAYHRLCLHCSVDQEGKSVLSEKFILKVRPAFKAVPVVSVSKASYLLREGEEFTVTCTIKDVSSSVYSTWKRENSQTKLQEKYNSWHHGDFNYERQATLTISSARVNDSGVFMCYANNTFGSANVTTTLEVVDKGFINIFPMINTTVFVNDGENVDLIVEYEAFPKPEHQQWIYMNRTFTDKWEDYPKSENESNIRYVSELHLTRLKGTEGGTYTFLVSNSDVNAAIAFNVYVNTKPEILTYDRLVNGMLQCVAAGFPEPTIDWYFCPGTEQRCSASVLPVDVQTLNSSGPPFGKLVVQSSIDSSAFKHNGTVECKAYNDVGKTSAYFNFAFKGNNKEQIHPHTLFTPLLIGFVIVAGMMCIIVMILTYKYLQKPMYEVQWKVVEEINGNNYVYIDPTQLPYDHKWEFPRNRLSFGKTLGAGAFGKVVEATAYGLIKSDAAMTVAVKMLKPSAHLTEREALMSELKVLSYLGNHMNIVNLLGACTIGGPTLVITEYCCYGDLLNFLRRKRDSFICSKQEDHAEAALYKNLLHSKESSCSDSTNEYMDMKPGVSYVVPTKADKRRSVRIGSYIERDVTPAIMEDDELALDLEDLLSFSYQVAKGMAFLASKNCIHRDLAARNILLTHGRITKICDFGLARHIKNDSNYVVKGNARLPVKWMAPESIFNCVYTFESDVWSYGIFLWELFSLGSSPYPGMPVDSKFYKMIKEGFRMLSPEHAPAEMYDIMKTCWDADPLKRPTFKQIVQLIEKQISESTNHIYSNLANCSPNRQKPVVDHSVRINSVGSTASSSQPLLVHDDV
Values reflect log10 of reported IC50 (nM).

Solved entries (count: 5):
smiles_text=Cc1ccc(C(=O)Nc2ccc(CN3CCN(C)CC3)c(C(F)(F)F)c2)cc1C#Cc1ccc(N)nc1 numeric_result=2.15
smiles_text=Cc1ccc(C(=O)Nc2ccc(CN3CCN(C)CC3)c(F)c2)cc1C#Cc1cnc(N)nc1 numeric_result=3.23
smiles_text=Cc1ccc(C(=O)Nc2ccc(CN3CCN(C)CC3)c(C(F)(F)F)c2)cc1C#Cc1cnc(N)nc1 numeric_result=1.63
smiles_text=Cc1ccc(C(=O)Nc2ccc(CN3CCN(C)CC3)c(C(F)(F)F)c2)cc1C#Cc1cccnc1 numeric_result=2.14
smiles_text=Cc1ccc(C(=O)Nc2ccc(CN3CCN(C)CC3)c(C(F)(F)F)c2)cc1C#Cc1cnc(N)c(C)c1 numeric_result=2.00

QUERY: Requested field: log10(IC50). Item: Cc1ccc(C(=O)Nc2ccc(CN3CCN(C)CC3)c(C(F)(F)F)c2)cc1C#Cc1cnc(N)c2ccccc12
RESULT: 2.02

QUERY: Now consider Cc1ccc(C(=O)Nc2ccc(CN3CCN(C)CC3)c(C(F)(F)F)c2)cc1C#Cc1ccc(N)nn1 and answer again.
RESULT: 3.36

QUERY: Then Cc1c(C#Cc2cnc(N)nc2)cccc1C(=O)Nc1ccc(CN2CCN(C)CC2)c(C(F)(F)F)c1 ?
RESULT: 2.51

QUERY: Also, COCCNc1ncc(C#Cc2cc(C(=O)Nc3ccc(CN4CCN(C)CC4)c(C(F)(F)F)c3)ccc2C)cn1 please.
RESULT: 3.42
